Reference for the values: the RNAGym collection of RNA variant scans (doi:10.7554/elife.80360)

B1: Hairpin Ribozyme (parent)
chain: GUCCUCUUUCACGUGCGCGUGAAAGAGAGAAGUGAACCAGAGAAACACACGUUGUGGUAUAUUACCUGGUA

Variants of: B1
Assay: self-cleavage, relative activity (ratio to wild type); higher = more cleavage; co-transcriptional
Could you please report measured self-cleavage for the items listed next?
Please respond with just the number, no unit label.

Output self-cleavage of U58G G69C 0.142

Output self-cleavage of G17U A61C 0.161

Output self-cleavage of A26G C65U 0.311

Output self-cleavage of A43U G51C 0.241

Output self-cleavage of `U14G` 0.813

Output self-cleavage of C18G G69C 0.205

Output self-cleavage of A11U U58G 0.65

Output self-cleavage of C3G U70G 0.272

Output self-cleavage of A39C G42A 0.191

Output self-cleavage of U33C A41U 0.159

Output self-cleavage of A26C U55C 0.211

Output self-cleavage of C48A U62G 0.0864

Output self-cleavage of A35C U63G 0.286

Output self-cleavage of A22U C46U 0.117

Output self-cleavage of U2G C50U 0.157

Output self-cleavage of G25A G27C 0.155

Output self-cleavage of U2C G17A 0.15

Output self-cleavage of U52A A71U 0.915

Output self-cleavage of C16A U20G 0.812

Output self-cleavage of G56U G69A 0.114

Output self-cleavage of G15U U70A 0.96

Output self-cleavage of `A71G` 1.04
